system: Fuc(a1-2)Gal(b1-3)GlcNAc(b1-3)Gal(b1-4)Glc
test_details: glycan array binding signal (z-score within array); higher = stronger binding
particulars: glycan notation: IUPAC condensed, linker removed
Only a selection was taken, and the strongest signals are over-represented in it overall.
The entries below are paired with their reported glycan array binding signal (z-score).
Please give the numeric answer without any surrounding text.

binder	test_value
SBD (Rhizopus oryzae), P07683 (protein) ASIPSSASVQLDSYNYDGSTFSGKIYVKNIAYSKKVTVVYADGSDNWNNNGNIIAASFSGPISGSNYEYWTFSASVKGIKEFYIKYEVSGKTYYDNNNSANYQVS	2.1

Exam item: I would be grateful if you could share the reported glycan array binding signal (z-score) for F17-L (Escherichia coli) (protein) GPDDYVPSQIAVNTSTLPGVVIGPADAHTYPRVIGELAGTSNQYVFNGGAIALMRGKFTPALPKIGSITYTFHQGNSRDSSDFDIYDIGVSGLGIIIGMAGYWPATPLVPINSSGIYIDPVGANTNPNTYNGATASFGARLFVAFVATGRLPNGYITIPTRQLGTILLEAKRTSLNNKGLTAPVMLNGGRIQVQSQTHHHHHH .
Marked response: 1.54

Exam item: One more binder: Epa1to9 (Candida glabrata) (protein) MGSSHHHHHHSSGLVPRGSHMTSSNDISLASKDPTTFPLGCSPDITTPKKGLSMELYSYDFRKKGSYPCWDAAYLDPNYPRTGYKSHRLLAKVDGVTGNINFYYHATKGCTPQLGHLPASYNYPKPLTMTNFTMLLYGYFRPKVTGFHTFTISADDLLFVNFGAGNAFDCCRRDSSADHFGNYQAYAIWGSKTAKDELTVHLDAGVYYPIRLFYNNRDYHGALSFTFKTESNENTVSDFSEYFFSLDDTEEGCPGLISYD
Marked response: -0.354

Exam item: One more binder: Aap lectin (Staphylococcus epidermidis) (protein) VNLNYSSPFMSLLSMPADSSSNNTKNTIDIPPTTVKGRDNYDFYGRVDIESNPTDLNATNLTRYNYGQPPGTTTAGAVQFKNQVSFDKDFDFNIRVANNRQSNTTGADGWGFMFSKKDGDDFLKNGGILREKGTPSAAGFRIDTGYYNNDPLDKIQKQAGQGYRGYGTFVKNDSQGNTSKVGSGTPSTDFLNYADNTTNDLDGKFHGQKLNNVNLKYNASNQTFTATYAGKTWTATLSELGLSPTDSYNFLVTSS
Marked response: -0.68
